# Test system: HCT116
# Assay name: cell viability (CellTiter-Glo) relative to plate median (fraction of plate median); higher = more viable cells
# Condition description: 5 µM; treatment time 24 h; reporter: TCF4/Wnt
Quantity kind: cell viability

Completed entries (count: 4):
| Molecule | Test result |
| --- | --- |
| COc1cc2nc(N3CCN(C(=O)C4CCCO4)CC3)nc(N)c2cc1OC (configuration not stated) | 0.991 |
| CC(C)CCC[C@@H](C)[C@H]1CC[C@H]2[C@@H]3C(=O)C=C4C[C@@H](O)CC[C@]4(C)[C@H]3CC[C@]12C | 0.99 |
| Cc1ccccc1OCC(O)CO (configuration not stated) | 0.983 |
| CCN(CC)C(C)CN1c2ccccc2Sc2ccccc21 (configuration not stated) | 1.02 |

I have this molecule here, "NC(=O)c1ccccc1O" , and I need its recorded cell viability.
0.991
